# reported % damage, Solanum; entries follow
tested on: Solanum; assay: Post-emergence test/greenhouse; type: in vivo; details: post-emergence, 60 g ai./ha, after three weeks
assay endpoint: % damage, Solanum (%)

> print(dat)
                                   compound  units  quantitative.result
1  CCc1nn(C(=O)NS(=O)(=O)c2c(OC(F)(F)F)cccc2SC)c(=O)n1C [Example 34]      %                   95
2  CCOc1nn(C(=O)NS(=O)(=O)c2c(SC)cccc2SC)c(=O)n1C [Example 52]      %                   95
3  CCOc1nn(C(=O)NS(=O)(=O)c2c(OC)cccc2SCC)c(=O)n1C [Example 7]      %                   95

----------
tested on: Wheat; experiment: Post-emergence test/greenhouse; type: in vivo; conditions: 60 g ai./ha, rated after three weeks vs untreated control
The compounds listed here are annotated with their Wheat, % damage.
assay endpoint: Wheat, % damage (%)

> print(dat)
                                   compound  target.under.test  quantitative.result
1  CCSc1cccc(C(F)(F)F)c1S(=O)(=O)NC(=O)n1nc(OC)n(C)c1=O [Example 13]              Wheat                    0
2  CCOc1nn(C(=O)NS(=O)(=O)c2c(SCC)cccc2SCC)c(=O)n1C [Example 43]              Wheat                   20
3  CCSc1cccc(SCC)c1S(=O)(=O)NC(=O)n1nc(CC)n(C)c1=O [Example 44]              Wheat                   10
4  CCOc1nn(C(=O)NS(=O)(=O)c2c(C)cccc2SC)c(=O)n1C [Example 48]              Wheat                    5
